B1: glmS ribozyme (parent)
chain: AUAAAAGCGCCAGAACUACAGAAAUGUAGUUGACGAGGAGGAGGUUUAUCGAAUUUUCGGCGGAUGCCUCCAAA

Variants of: B1
ASSAY NOTES: self-cleavage kobs at 640 uM GlcN6P; higher = faster cleavage; RNA array
ASSAY SETUP: with glucosamine-6-phosphate
Variants at the floor of the assay were thinned out.
ASSAY READOUT: self-cleavage kobs at 640 uM GlcN6P

Take a look at these entries with their results.
[[record]]
mutant_id = "C10G U47C U49C U55G"
reported_value = "< 1e-05 s⁻¹"

[[record]]
mutant_id = "C10A G41C U46G C68U"
reported_value = "< 1e-05 s⁻¹"

[[record]]
mutant_id = "U30G A42G U45C C70A C71A"
reported_value = "< 1e-05 s⁻¹"

[[record]]
mutant_id = "C11G A12U G41U A53G C67G"
reported_value = "< 1e-05 s⁻¹"

[[record]]
mutant_id = "U30G A39U U45G"
reported_value = "0.000324 s⁻¹"

[[record]]
mutant_id = "G37C U49C"
reported_value = "< 1e-05 s⁻¹"

[[record]]
mutant_id = "C58U G59U"
reported_value = "< 1e-05 s⁻¹"

[[record]]
mutant_id = "C61U C67G"
reported_value = "< 1e-05 s⁻¹"


# input variant: A33C G35C ; wanted: its self-cleavage kobs at 640 uM GlcN6P
< 1e-05 s⁻¹

# input variant: C11A U30G G32U G44A G66A ; wanted: its self-cleavage kobs at 640 uM GlcN6P
< 1e-05 s⁻¹

# input variant: G37U C61G ; wanted: its self-cleavage kobs at 640 uM GlcN6P
< 1e-05 s⁻¹

Data provenance: the supplement of paper PMC7125110
